- TEST_SYSTEM: Capsid scaffolding protein (Human herpesvirus 2 (strain HG52) (HHV-2) (Human herpes simplex virus2))
- Sequence (P89449 1-247 limits assumed): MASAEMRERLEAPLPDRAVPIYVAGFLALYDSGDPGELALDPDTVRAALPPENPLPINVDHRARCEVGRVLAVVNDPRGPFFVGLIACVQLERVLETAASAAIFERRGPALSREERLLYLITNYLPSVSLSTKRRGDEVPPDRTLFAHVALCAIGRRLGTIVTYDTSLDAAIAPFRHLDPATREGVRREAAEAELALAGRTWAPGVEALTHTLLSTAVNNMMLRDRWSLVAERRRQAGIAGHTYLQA
- EXPERIMENT_NOTES: Inhibitory activity against herpes simplex virus protease (HSV-2)
- Format: functional, Human alphaherpesvirus 2
pIC50: −log10 of the molar value.
MEASURED_PROPERTY: pIC50

• Cc1csc2nc([C@H](C)NC(=O)/C=C/C(=O)c3ccccc3)oc(=O)c12 = 5.57
• Cc1csc2nc([C@H](C)NC(=O)/C=C/C(=O)Nc3ccccc3)oc(=O)c12 = 5.59
• COc1cccc(C(=O)/C=C/C(=O)N[C@@H](C)c2nc3scc(C)c3c(=O)o2)c1 = 6.17
• Cc1csc2nc([C@H](C)NC(=O)CCC(=O)c3cccs3)oc(=O)c12 = 5.33
• Cc1csc2nc([C@H](C)NC(=O)/C=C/C(=O)c3ccccc3[N+](=O)[O-])oc(=O)c12 = 5.66
• Cc1csc2nc([C@H](C)NC(=O)/C=C/C(=O)c3ccc(Cl)cc3)oc(=O)c12 = 4.82
• CC(=O)/C=C/C(=O)N[C@@H](C)c1nc2scc(C)c2c(=O)o1 = 6.10
• Cc1csc2nc([C@H](C)NC(=O)/C=C/C(=O)c3cccc(C#N)c3)oc(=O)c12 = 5.70
• CCOc1ccc(C(=O)/C=C/C(=O)N[C@@H](C)c2nc3scc(C)c3c(=O)o2)cc1 = 4.80
• Cc1csc2nc([C@H](C)NC(=O)/C=C/C(=O)c3cccc([N+](=O)[O-])c3)oc(=O)c12 = 5.52
• Cc1csc2nc([C@H](C)NC(=O)/C=C/C(=O)c3cccs3)oc(=O)c12 = 5.34
• Cc1csc2nc([C@H](C)NC(=O)CCC(=O)c3ccccc3)oc(=O)c12 = 4.92
